System: OVCAR-5 ovarian
Test: NCI-60 one-dose screen, 48 h (100 = growth as untreated, 0 = no growth, -100 = all killed)
Settings: 10 µM unless noted
The panel holds about 83,000 compounds, 20% with a hit somewhere; the sample as a whole holds those more often.
assay-readout: growth (%)
# number only, unit % dropped from output

Past entries and their recorded results:
N/C(=N\N=C\c1ccc([N+](=O)[O-])cc1)c1c(N)nc(=S)[nH]c1-c1ccc(Cl)cc1Cl : 111
COC1=C[C@]23CCC(=O)N2CCc2cc4c(cc2[C@@H]3[C@@H]1OC(=O)[C@H](C)O)OCO4 : 46.4
COc1ccc(NC(=O)c2sc3nc(C(C)C)ccc3c2N)cc1 : 83.2
Cn1cc(-c2nc(N)nnc2-c2c[nH]c3ccc(F)cc23)c2cc(Br)cnc21 : 14.9
Cc1cc2c(cc1Cl)C(=O)/C(=C/c1ccc(F)cc1)O2 : 106

Ask | For OVCAR-5 ovarian, give the measured growth of the entry CCN(CC)c1ccc(/C=N/Nc2nc(-c3ccc(C)cc3)cs2)c(O)c1
Reply | 93.2

Ask | For OVCAR-5 ovarian, give the measured growth of the entry O=C(O)c1cccc(-c2ccc(/C=N/NC(=O)c3[nH]c4ccc(Br)cc4c3-c3ccccc3)o2)c1
Reply | 107
